test: inhibitors of E-selectin induction by TNFa, primary screen, imaging, HUVEC, immunofluorescence, MLSMR starter and 10KST1 sets (AID 487); details: HUVEC TNFalpha-induced E-selectin immunofluorescence imaging, at 2 µM; measured here: cell number, toxicity;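 further: 100% = median nuclei count of all wells on the same plate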
reportedMetric: nuclei count (%)

> print(dat)
                                    compound  measuredvalue
 1  CNC(=O)c1ccc(N(Cc2ccccc2C)S(C)(=O)=O)cc1            116
 2           CSC1=N/C(=C\C=C\c2cccs2)C(=O)S1            115
 3  O=c1c(-c2ccc(Cl)cc2)[n+]([O-])c2ccccc2n1O            170
 4  COc1ccccc1-n1c(N)c(C(=O)NCC2CCCO2)c2nc3ccccc3nc21 (stereo unspecified)            160
 5   CC(NC(=O)NCCCn1ccnc1)(C(F)(F)F)C(F)(F)F            166
 6        COc1ccc(S(=O)(=O)Nc2cc(C)on2)cc1OC            136
 7      Cc1cccc(-n2ncc3c(NCc4ccco4)ncnc32)c1            165
 8  Cc1cc(NC(=O)c2cccc(S(=O)(=O)N3CC(c4ccccc4)CC3=O)c2)no1 (stereo unspecified)            121
 9             O=C(Nc1cccnc1)c1ccc2c(c1)OCO2            110
10  Cc1ccccc1-n1c(=O)cc(N2CCN(C(=O)c3ccco3)CC2)[nH]c1=O           99.7
11  O=C(C1CCCN(S(=O)(=O)c2ccc(Br)s2)C1)N1CCCCCC1 (stereo unspecified)           31.6
12    Cc1nc(N2CCC(C)CC2)c2c(C)c(C(=O)O)sc2n1            103
13              CCCCC(=O)C1CCN(Cc2ccccc2)CC1            177
14  CCOC(=O)c1ccc(NC(=O)CCc2nc(-c3cccc(C)c3)no2)cc1            100
15    O=C(O)C(O)c1ccco1 (stereo unspecified)            150
16        N#Cc1nc(COc2ccccc2F)oc1NCCCn1ccnc1            136
17      O=C(c1c(F)cccc1F)N(Cc1ccccn1)C1CCCC1           87.3
18  CCN(CC)CCN1C(=O)C(=O)/C(=C(/O)c2c(C)[nH]c(C(=O)OC)c2C)C1c1cccc(OC)c1 (stereo unspecified)            188
19  CCC(C)NC(=O)C1(C)CCC(=O)N1CCc1ccc(OC)c(OC)c1 (stereo unspecified)            103
20  O=C(COC(=O)C12CC3CC(CC(C3)C1)C2)NCc1ccco1            113
21  COc1ccc(OCCN2C(=O)NC(C)(c3ccc(C)cc3)C2=O)cc1 (stereo unspecified)            138
22     COc1ccc2c(c1)c(C(=O)CN1CCOCC1)c(C)n2C           85.8
23  COc1ccc(N2CCN(C(=O)c3c(-c4ccccc4)noc3C)CC2)cc1             96
24               CCCCCOc1ccccc1C(=O)NCC(=O)O            169
25  COCCN(C(=O)c1csnn1)C(C(=O)NC(C)(C)C)c1cccc(OC)c1 (stereo unspecified)            102
26  CC1(C)Cc2c(C#N)c(N3CCN(C(=O)c4ccccc4)CC3)nc(-c3ccco3)c2CS1            156
27              CCOC(=O)Cn1nc(C)c2ccccc2c1=O            154
28        O=S1(=O)C=C(Oc2ccc(F)cc2)c2ccccc21            111
29  COc1ccc(C2=NOC(C(=O)Nc3cc(Br)ccc3O)C2)cc1OC (stereo unspecified)            106
30  O=C(O)c1ccc2c(c1)N(Cc1ccccc1F)C(=O)c1ccccc1S2=O (stereo unspecified)            107
31      O=C(CSc1nnc2ccccn12)NCCN1C(=O)CSC1=O            130
32  Cn1c(NC(=O)c2ccccc2NC(=O)C(C)(C)C)nc2ccccc21            126
33          Cc1cc(=O)n(C)c(=O)n1CCCNc1ccccc1            113
34    COC(=O)c1[nH]c2ccc(Cl)cc2c1NC(=O)C1CC1            120
35  CCCCC(=O)NCCNc1nc2c(c(=O)n(C)c(=O)n2C)n1Cc1ccccc1            106
36   Cc1nc2ccccc2c2c1C(=O)N(CCC1=CCCCC1)C2=O            108
37             Cc1ccc(-c2cc(C(=O)O)n[nH]2)o1           97.7
38  O=C(CN1C(=O)CCS(=O)(=O)c2ccccc21)NCc1ccc(F)cc1            124
39  CCOc1ccc(Cn2nnc(C(=O)NCc3ccc(OC)cc3)c2N)cc1            100
40  CCOC(=O)c1[nH]nc(N)c1NC(=O)c1ccc(Cl)cc1Cl            134
41  COCCn1c(=N)c(C(=O)NCCc2ccccc2)cc2c(=O)n3cccc(C)c3nc21            117
42       Cc1onc(-c2ccccc2Cl)c1C(=O)Nc1cccnc1            148
43  CC(O)c1cc2c(cc1NC(=O)c1cnn3c1NC(c1ccco1)CC3C(F)(F)F)OCO2 (stereo unspecified)           98.9
44  CCc1ccc(NC(=O)CS(=O)CC(=O)NCC2OCCc3ccccc32)cc1 (stereo unspecified)            114
45  CCOC(=O)C(NC(C)=O)(NS(=O)(=O)c1ccccc1)C(F)(F)F (stereo unspecified)           90.8
46  COc1ccc(-c2ccc(-c3nnn(CC(C)=O)n3)cc2)cc1            130

---

Listed next: entries and their corresponding nuclei count.
test: inhibitors of E-selectin induction by TNFa, primary screen, imaging, HUVEC, immunofluorescence, MLSMR starter and 10KST1 sets (AID 487); conditions: HUVEC TNFalpha-induced E-selectin immunofluorescence imaging, at 2 µM; measured here: cell number, toxicity;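 further: 100% = median nuclei count of all wells on the same plate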
reportedMetric: nuclei count

> print(dat)
                                    compound  reportedmetric  measuredvalue
 1  COc1ccc(NC(=O)CN(c2ccc(C)cc2)S(C)(=O)=O)c(OC)c1    nuclei count           139%
 2             N#Cc1nc(COc2ccccc2)oc1N1CCCC1    nuclei count           164%
 3  CN(C)S(=O)(=O)c1ccc(/C(O)=C2/C(=O)C(=O)N(CCN3CCCCC3)C2c2cccnc2)cc1 (configuration not stated)    nuclei count           113%
 4  C=CCNc1nc(N2CCCCC2)c(C#N)c2c1CN(Cc1ccccc1)CC2    nuclei count           127%
 5          O=C(OCCN1CCOCC1)c1ccc2c(c1)OCCO2    nuclei count           180%
 6  CCCCCn1c(CN2CCN(C(=O)c3ccco3)CC2)nc2c1c(=O)n(C)c(=O)n2C    nuclei count           113%
 7  CCOC(=O)N1CCC(NC(=O)CN2C(=O)CCSc3ccccc32)CC1    nuclei count           108%
 8  COC(=O)C(NC(=O)c1ccccc1)(Nc1nccs1)C(F)(F)F (configuration not stated)    nuclei count           159%
 9  CCOC(=O)c1[nH]c2ccc(F)cc2c1N=C(C)N(CC)CC    nuclei count           100%
10                       CC(C)c1ccc(O)c(N)c1    nuclei count           180%
11  O=C(NC1CCN(Cc2ccccc2)CC1)C1CCN(S(=O)(=O)c2cccc3cccnc23)CC1    nuclei count          99.2%
12  COc1ccc(/C(O)=C2/C(=O)C(=O)N(CCN3CCOCC3)C2c2cccnc2)cc1OC (configuration not stated)    nuclei count           151%
13  CC(NC(=O)c1cc2c(=O)n(C)c3ccccc3c2n1C)c1ccc2c(c1)OCCO2 (configuration not stated)    nuclei count           107%
14  C=C(C)CC1N(c2cccc(OC)c2)C(=O)[C@@H]2C(C(=O)O)[C@H]3C=C[C@@]12O3 (some centres not stated)    nuclei count           182%
15  COc1ccc(-n2c(=O)[nH]cc(C(=O)Nc3ccc(NC(C)=O)cc3)c2=O)cc1    nuclei count          85.4%
16       O=C(c1ccncc1)N1CCN(C(=O)c2cccs2)CC1    nuclei count           106%
17  CCOCCCNC(=O)C(c1ccc(C)cc1)N(Cc1ccc2c(c1)OCO2)C(=O)c1cnccn1 (configuration not stated)    nuclei count           107%
18                   O=C(/C=N/O)NCCCN1CCOCC1    nuclei count           168%
19  CCc1nnc(NC(=O)c2ccc(S(=O)(=O)N(CC(C)C)CC(C)C)cc2)o1    nuclei count          81.5%
20         Cc1cc(=O)oc(C)c1C(=O)NCCC1=CCCCC1    nuclei count           114%
21                        Cn1c(Cl)nc2ccccc21    nuclei count          93.3%
22  CC12CCC(=O)N1c1c(sc3nc(N4CCOCC4)c4c(c13)CCCC4)C(=O)N2 (configuration not stated)    nuclei count           122%

Reference source for all entries: PubChem BioAssay
